The entries below are paired with their reported inhibition.
molecular target: Fructose-bisphosphate aldolase (Mycobacterium tuberculosis (strain ATCC 25618 / H37Rv)) (UniProt P9WQA3); test: Mtb FBA enzyme inhibitors, primary screen, biochemical, fluorescence, strain H37Rv (AID 588726);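 note: 0% = vehicle and 100% = reference inhibitor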; conditions: purified M. tuberculosis FBA, fluorescence read-out, at 1 µM, stronger effect = higher value
Sequence (P9WQA3 whole entry, looked up): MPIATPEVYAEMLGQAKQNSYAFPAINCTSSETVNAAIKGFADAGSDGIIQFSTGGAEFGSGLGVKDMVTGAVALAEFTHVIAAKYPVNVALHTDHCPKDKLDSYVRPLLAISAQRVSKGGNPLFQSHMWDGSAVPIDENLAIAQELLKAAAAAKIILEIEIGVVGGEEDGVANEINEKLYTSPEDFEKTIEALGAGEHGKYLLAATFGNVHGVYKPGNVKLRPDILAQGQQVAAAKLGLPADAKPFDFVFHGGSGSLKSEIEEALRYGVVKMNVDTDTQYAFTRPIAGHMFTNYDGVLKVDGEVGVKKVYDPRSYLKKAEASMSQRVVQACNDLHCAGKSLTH
Hit rate of the full screen: of about 360,000 compounds, about 8,200 (2.3%) were called active. This is one part of a sample in which actives are shown more often than they occur.

Reference set, count: 8
COMPOUND: CCOC(=O)c1cnc2sccn2c1=O
EXPERIMENTAL_ENDPOINT: inhibition
OBSERVED_RESULT: 20.1% (inactive)
//
COMPOUND: O=C(O)c1cccc(S(=O)(=O)N2CC=C(c3ccccc3)CC2)c1
EXPERIMENTAL_ENDPOINT: inhibition
OBSERVED_RESULT: 0.87% (inactive)
//
COMPOUND: Cc1oc(C(N)=O)cc1COc1ccc(C(N)=O)cc1
EXPERIMENTAL_ENDPOINT: inhibition
OBSERVED_RESULT: 3.54% (inactive)
//
COMPOUND: Cc1c(CCC(=O)N[C@@H](CC(C)C)C(=O)O)c(=O)oc2c(C)c3oc4c(c3cc12)CCCC4
EXPERIMENTAL_ENDPOINT: inhibition
OBSERVED_RESULT: 13.8% (inactive)
//
COMPOUND: O=C(COc1cc2oc(=O)c3c(c2cc1Cl)CCC3)NCCCN1CCOCC1
EXPERIMENTAL_ENDPOINT: inhibition
OBSERVED_RESULT: 6.36% (inactive)
//
COMPOUND: COc1ccc(-n2cnc3cc(NCc4ccco4)ccc32)cc1
EXPERIMENTAL_ENDPOINT: inhibition
OBSERVED_RESULT: -1.49% (inactive)
//
COMPOUND: COc1ccc(-n2c(SCC(=O)Nc3ccc4c(c3)OCO4)nnc2C(C)N2CCCCC2)cc1 (stereo not given)
EXPERIMENTAL_ENDPOINT: inhibition
OBSERVED_RESULT: 0.95% (inactive)
//
COMPOUND: CCCCNC(=O)c1ccccc1NC(=O)C1=C(C)OCCS1
EXPERIMENTAL_ENDPOINT: inhibition
OBSERVED_RESULT: 1.28% (inactive)

Any idea what its inhibition is? The compound is `Cc1ccc(NC(=O)CN(C)C(=O)COC(=O)C(C)(C)Oc2ccc(Cl)cc2)cc1`
2.5% (inactive)

Here is the next compound: `N#Cc1cccc(OC(=O)c2ccc3c(=O)n4c(nc3c2)CCC4)c1`
1.39% (inactive)

Here is the next compound: `Fc1ccc(COc2ccc(-c3nnco3)cc2)cc1`
-0.19% (inactive)

Here is the next compound: O=C1c2ccccc2-c2ccccc2NC1O (stereo not given)
-1.24% (inactive)

Here is the next compound: CCOCCCNC(=O)C(NC(=O)c1ccccc1O)c1ccccc1 (stereo not given)
43.8% (active)

Here is the next compound: `Cn1c(-c2ccco2)nc2cc3ccccc3cc21`
81.7% (active)

Here is the next compound: `O=C1[C@@H](c2ccccc2)[C@@H](c2ccccc2)N1c1cccnc1`
4.74% (inactive)

Here is the next compound: `CCOC(=O)c1cnc(COc2ccccc2Cl)[nH]c1=O`
3.61% (inactive)
